Answer each item with its documented pIC50.
# measured.target: Pseudomonas aeruginosa LpxC enzyme (Pseudomonas aeruginosa, UniProt P47205)
# Construct: made in house; host or cells: E. coli
# Sequence (P47205 whole entry): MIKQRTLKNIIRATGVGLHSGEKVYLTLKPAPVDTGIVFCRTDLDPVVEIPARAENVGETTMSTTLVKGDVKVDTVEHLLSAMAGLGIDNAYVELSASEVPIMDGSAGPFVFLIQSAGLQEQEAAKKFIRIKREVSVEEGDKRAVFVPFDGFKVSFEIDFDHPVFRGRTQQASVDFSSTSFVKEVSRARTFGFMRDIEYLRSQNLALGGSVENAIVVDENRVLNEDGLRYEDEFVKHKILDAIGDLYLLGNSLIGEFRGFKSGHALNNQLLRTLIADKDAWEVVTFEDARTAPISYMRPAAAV
# test.protocol: IC50 assay, LpxC enzyme from P. aeruginosa (PA LpxC enzyme IC50)
# Type: biochemical
# test.context: Table 3; LpxC enzyme 0.1 nM, 25° C., 1 hour; read-out: PA:IC50
One number for each entry, as −log10 of the molar value.

Field: example entries. Status: answers known.
| molecule | measured.target | quantity | reported.value |
| --- | --- | --- | --- |
| Cc1cc(-c2cc(=O)n(CCC(C)(C(=O)NO)S(C)(=O)=O)cc2F)ccc1C#N (centres unmarked) | Pseudomonas aeruginosa LpxC enzyme (Pseudomonas aeruginosa, UniProt P47205) | pIC50 | 8.89 |
| COc1cc(C#N)cc(-c2cc(=O)n(CCC(C)(C(=O)NO)S(C)(=O)=O)cc2F)c1 (centres unmarked) | Pseudomonas aeruginosa LpxC enzyme (Pseudomonas aeruginosa, UniProt P47205) | pIC50 | 7.29 |
| CC(CCn1cc(F)c(-c2ccccc2F)cc1=O)(C(=O)NO)S(C)(=O)=O (centres unmarked) | Pseudomonas aeruginosa LpxC enzyme (Pseudomonas aeruginosa, UniProt P47205) | pIC50 | 8.85 |
| CC(CCn1cc(F)c(-c2ccc(Cl)c(C#N)c2)cc1=O)(C(=O)NO)S(C)(=O)=O (centres unmarked) | Pseudomonas aeruginosa LpxC enzyme (Pseudomonas aeruginosa, UniProt P47205) | pIC50 | 8.68 |
| CC(CCn1cc(F)c(-c2ccc3c(c2)C(=O)NC3)cc1=O)(C(=O)NO)S(C)(=O)=O (centres unmarked) | Pseudomonas aeruginosa LpxC enzyme (Pseudomonas aeruginosa, UniProt P47205) | pIC50 | 7.17 |

Parameter requested: pIC50. Apply to each item below.
1. COc1ccc(-c2cc(=O)n(CCC(C)(C(=O)NO)S(C)(=O)=O)cc2F)cn1 (centres unmarked)
2. COCc1cccc(-c2cc(=O)n(CCC(C)(C(=O)NO)S(C)(=O)=O)cc2F)c1 (centres unmarked)
3. CN(C)Cc1ccc(-c2cc(=O)n(CCC(C)(C(=O)NO)S(C)(=O)=O)cc2F)cc1 (centres unmarked)

*A*
1: 8.51; 2: 7.85; 3: 7.44

Parameter requested: pIC50. Apply to each item below.
1. CC(CCn1cc(F)c(-c2cnc(N3CCCC3)nc2)cc1=O)(C(=O)NO)S(C)(=O)=O (centres unmarked)
2. CC(=O)Nc1ccc(-c2cc(=O)n(CCC(C)(C(=O)NO)S(C)(=O)=O)cc2F)cc1 (centres unmarked)
3. CC(CCn1cc(F)c(-c2ccc(C#N)cc2)cc1=O)(C(=O)NO)S(C)(=O)=O (centres unmarked)
4. CN1Cc2cc(-c3cc(=O)n(CCC(C)(C(=O)NO)S(C)(=O)=O)cc3F)ccc2C1=O (centres unmarked)
5. COc1cc(C)cc(-c2cc(=O)n(CCC(C)(C(=O)NO)S(C)(=O)=O)cc2F)c1F (centres unmarked)
6. COc1cccc(-c2cc(=O)n(CCC(C)(C(=O)NO)S(C)(=O)=O)cc2F)c1F (centres unmarked)

*A*
1: 7.25; 2: 7.61; 3: 8.47; 4: 8.14; 5: 8.52; 6: 9.15

Parameter requested: pIC50. Apply to each item below.
1. CN(C)c1ncc(-c2cc(=O)n(CCC(C)(C(=O)NO)S(C)(=O)=O)cc2F)cn1 (centres unmarked)
2. CCOc1ccc(-c2cc(=O)n(CCC(C)(C(=O)NO)S(C)(=O)=O)cc2F)cc1F (centres unmarked)
3. CC(CCn1cc(F)c(-c2cccc(F)c2F)cc1=O)(C(=O)NO)S(C)(=O)=O (centres unmarked)
4. CCOc1cc(-c2cc(=O)n(CCC(C)(C(=O)NO)S(C)(=O)=O)cc2F)ccn1 (centres unmarked)
5. CNC(=O)c1ccc(-c2cc(=O)n(CCC(C)(C(=O)NO)S(C)(=O)=O)cc2F)cc1 (centres unmarked)

*A*
1: 7.13; 2: 8.92; 3: 9.10; 4: 8.24; 5: 7.84

Parameter requested: pIC50. Apply to each item below.
1. CC(CCn1cc(F)c(-c2ccc(C(F)(F)F)nc2)cc1=O)(C(=O)NO)S(C)(=O)=O (centres unmarked)
2. CC(CCn1cc(F)c(-c2cc(F)cc(Cl)c2)cc1=O)(C(=O)NO)S(C)(=O)=O (centres unmarked)

*A*
7.53
8.70

Parameter requested: pIC50. Apply to each item below.
1. Cc1ccc2ccc(-c3cc(=O)n(CCC(C)(C(=O)NO)S(C)(=O)=O)cc3F)cc2n1 (centres unmarked)
2. CN1Cc2ccc(-c3cc(=O)n(CCC(C)(C(=O)NO)S(C)(=O)=O)cc3F)cc2C1=O (centres unmarked)
3. CN(C)C(=O)c1ccc(-c2cc(=O)n(CCC(C)(C(=O)NO)S(C)(=O)=O)cc2F)cc1 (centres unmarked)
4. COc1cc(C#N)ccc1-c1cc(=O)n(CCC(C)(C(=O)NO)S(C)(=O)=O)cc1F (centres unmarked)
5. CC(CCn1cc(F)c(-c2ccc(Cl)cc2)cc1=O)(C(=O)NO)S(C)(=O)=O (centres unmarked)
6. CCOc1ccc(-c2cc(=O)n(CCC(C)(C(=O)NO)S(C)(=O)=O)cc2F)cn1 (centres unmarked)
7. COc1cccc(-c2cc(=O)n(CCC(C)(C(=O)NO)S(C)(=O)=O)cc2F)c1 (centres unmarked)
8. CC(CCn1cc(F)c(-c2ccc3cn[nH]c3c2)cc1=O)(C(=O)NO)S(C)(=O)=O (centres unmarked)

*A*
1. 7.97
2. 7.68
3. 7.46
4. 8.28
5. 9.00
6. 8.60
7. 8.60
8. 8.41

Hello, the source for this data is patent US8624034B2, in case you need it.
